Overview of recorded IC50 for various binders
- SYSTEM: T1, TNF receptor 1 Fc fusion protein (R&D Systems) (human, UniProt P19438 30-211, limits assumed)
- T1 construct: also called recombinant TNF receptor 1 (p55); not shown: Fc part of the bought fusion protein, captured by an anti-human Fc antibody
- T1 sequence (looked up): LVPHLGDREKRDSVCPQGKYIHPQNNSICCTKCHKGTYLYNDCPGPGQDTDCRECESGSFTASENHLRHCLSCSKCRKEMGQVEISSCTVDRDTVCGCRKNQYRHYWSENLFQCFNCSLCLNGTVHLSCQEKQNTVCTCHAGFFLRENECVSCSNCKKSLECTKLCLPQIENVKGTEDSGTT
- EXPERIMENT DESCRIPTION: DOM1 receptor binding assay (RBA): dAb titrated against TNF binding to TNF receptor 1
All answers are understood in nM, so give the number only.

// solved cases for IC50 follow
{"columns": ["BINDER", "READOUT", "UNIT SYMBOL", "MEASURED"],
 "data": [
  ["TAR2-10-27 Ser120cys 30K MAL PEG (other, 30K MAL-PEG on the C-terminal Cys (Ser120cys), TAR2-10-27 cys; For the limits of the entry see m36; also called TAR210-27 30K MAL PEG) VH: ASTEVQLLESGGGLVQPGGSLRLSCAASGFTFEWYWMGWVRQAPGKGLEWVSAISGSGGSTYYADSVKGRFTISRDNSKNTLYLQMNSLRAEDAAVYYCAKVKLGGGPNFGYRGQGTLVTVSC", "IC50", "nM", 10],
  ["TAR2-10-27 Gln13cys blocked (other, Cys13 blocked with N-ethylmaleimide, For numbering and entry offset see m28) VH: ASTEVQLLESGGGLVCPGGSLRLSCAASGFTFEWYWMGWVRQAPGKGLEWVSAISGSGGSTYYADSVKGRFTISRDNSKNTLYLQMNSLRAEDAAVYYCAKVKLGGGPNFGYRGQGTLVTVSS", "IC50", "nM", 2],
  ["TAR2-10-27 Glu89cys blocked (other, Cys89 blocked with N-ethylmaleimide, For numbering and entry offset see m28) VH: ASTEVQLLESGGGLVQPGGSLRLSCAASGFTFEWYWMGWVRQAPGKGLEWVSAISGSGGSTYYADSVKGRFTISRDNSKNTLYLQMNSLRACDAAVYYCAKVKLGGGPNFGYRGQGTLVTVSS", "IC50", "nM", 3]
]}

Query :: Entry TAR2-10-27 Ser120cys blocked (other, C-terminal Cys (Ser120cys) blocked with N-ethylmaleimide, TAR2-10-27 cys; the entry already carries Ser120cys) VH: ASTEVQLLESGGGLVQPGGSLRLSCAASGFTFEWYWMGWVRQAPGKGLEWVSAISGSGGSTYYADSVKGRFTISRDNSKNTLYLQMNSLRAEDAAVYYCAKVKLGGGPNFGYRGQGTLVTVSC has what IC50?
Result :: 3

Query :: Now the binder TAR2-10-27 Gln112cys 30K MAL PEG (other, 30K MAL-PEG on Cys112, For numbering and entry offset see m28) VH: ASTEVQLLESGGGLVQPGGSLRLSCAASGFTFEWYWMGWVRQAPGKGLEWVSAISGSGGSTYYADSVKGRFTISRDNSKNTLYLQMNSLRAEDAAVYYCAKVKLGGGPNFGYRGCGTLVTVSS
Result :: 15

Attribution: patent US20060286066A1
